# Assay System: T1, human CD84 on cells (human) (UniProt Q9UIB8)
# T1 sequence (looked up): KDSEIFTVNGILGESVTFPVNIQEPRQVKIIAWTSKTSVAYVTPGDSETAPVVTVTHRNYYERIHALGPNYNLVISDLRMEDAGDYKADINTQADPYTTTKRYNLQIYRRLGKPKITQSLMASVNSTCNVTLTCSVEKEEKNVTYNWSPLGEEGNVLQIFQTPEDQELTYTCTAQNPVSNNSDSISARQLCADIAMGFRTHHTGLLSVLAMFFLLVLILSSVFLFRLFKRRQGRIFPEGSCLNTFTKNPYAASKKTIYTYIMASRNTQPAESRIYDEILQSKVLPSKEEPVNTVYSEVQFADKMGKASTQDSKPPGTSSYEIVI
# Measurement Protocol: flow cytometry, hybridoma supernatant at equal antibody concentration, Raji cells
# binarize Raji binding: threshold 90% inclusive, high side fulfilled, low side not fulfilled

>  <Binder>
GYCD84.5.171 (antibody, mouse IgG1, V domains shown) VH: EVQLVESGGGLVQPKGSLKLACAASGFTFNIYAMNWVRQAPGKGLEWVARIRSKSNNYARFYADSVKDRFTISRDDSQSMLYLQMNNLKTEDTAMYYCVRPLRSYFSMDYWGQGTSVTVSS VL: SIVMTQSPKSMSMSVGERVTLSCKASENVDTYVSWYQQKPEQSPKLLIYGASNRYTGVPDRFTGSGSATDFTLTISSVKAEDLADYHCGQTYSYPWTFGGGTKLEIK

>  <Class>
not fulfilled

$$$$
>  <Binder>
GYCD84.1-226 (antibody, mouse IgG1, V domains shown) VH: QVQLQQPGAELVKPGTSVKLSCKASGYNFTRYWINWVKLRPGQGLEWIGDIYPGSGSTNYNEKFKSKATLTVDTSSSTAYMQLSRLASEDSALYYCARDTTIAYWGQGTLVTVSA VL: DIVLTQSPTSLAVSLGQRATISCRASQSVTTSRYSYMHWYQQKPGQPPKLLIKFASNLESGVPARFSGSGSGTDFTLNIHPVEEEDTATYYCQHSWEIPYTFGGGTKLEIK

>  <Class>
fulfilled

$$$$
>  <Binder>
GYCD84.2.32 (antibody, mouse IgG1, V domains shown) VH: EVQLQQSGPELEKPGASVKISCKASGYSFTGYNMNWVKQSNGKSLEWIGNIDPYYGGTNYNQKFKGKATLTVDKSSSTAYMQLKSLTSEDSAVYYCARGLLSGSFPYWGQGTLVTVSA VL: DIQMTQSPASLSASVGETVTITCRASENIYSYLAWYQQKQGKSPQLLVYNAKTLAEGVPSRFSGSGSGTQFSLKINSLHPEDFGSYFCQHHYGSPLTFGAGTKLEVK

>  <Class>
fulfilled

$$$$
>  <Binder>
GYCD84.1-108 (antibody, mouse IgG2a, V domains shown) VH: QVQLQQSGAELVRPGTSVKMSCKAAGYTFTNYWIGWVRQRPGHGLEWIGDIYPGGGYTNYNENFKGKATLTADTSSSTAYMQLSSLTSEDSAIYYCARSTTYYSSYWCFDVWGPGTTVTVSS VL: DIVMTQSPSSLSVSAGEKVTMSCKSSQSLLNSGNQANYLAWYQQKPGQPPKLLINGASTRESGVPDRFTGSGSGTDFTLTISSVQAEDLAVYYCQNDHSYPFTFGSGTKLEIK

>  <Class>
not fulfilled

$$$$

The reported measurements were obtained from patent EP4209511A1.
